Quick reference: T/C of the listed items.
# Tested on: P388 leukemia ip, CD2F1 mice, survival T/C
# assay.details: NCI In Vivo Anticancer Drug Screen. Data for tumor model P388 Leukemia (intraperitoneal) in CD2F1 (CDF1) mice
# measurement.setup: endpoint: median survival time; dose: 200.0 mg/kg/injection; schedule: Q01DX005 (ip); vehicle: Klucel (hydroxypropylcellulose) (HPC); higher = longer survival
Toxic doses and inconclusive results are not listed.

{"columns": ["compound", "T/C"],
 "data": [
  ["Cc1cnc(Sc2ncccn2)c(C(=O)O)c1[N+](=O)[O-]", "100 % of control"],
  ["CC[As](CC)SC(CC[C@@H](C)C1CC[C@@]2(C)C3=C(CC[C@]12C)[C@@]1(C)CC[C@H](O)C(C)(C)[C@@H]1CC3)C(C)C (stereo not given in full)", "95 % of control"],
  ["O=C(O)c1cccc2c1-c1ccccc1C2=O", "103 % of control"],
  ["Cc1ccc(C(=O)N=Nc2c(Cl)c(O)c3ccccc3c2O)cc1", "103 % of control"],
  ["C=C1C(=O)O[C@@H]2C[C@H](C)[C@@H]3CC[C@H](O)[C@@]3(CO)C[C@H]12", "122 % of control"]
]}
